system: human PKK mRNA; assay: Antisense inhibition of human PKK mRNA in HepaRG cells, 1,000 nM, MOE/deoxy/cEt oligonucleotides (Example 3); assay type: cell-based; settings: Table 27; HepaRG cells, 1,000 nM antisense oligonucleotide; human PKK mRNA
Strand notation (5' to 3'): a small letter for the sugar, then the base; units joined by * are phosphorothioate-linked, units joined directly phosphodiester-linked; [ ] holds rarer units or linkages, { } end groups; capitals alone tell only the bases. e = 2'-O-(2-methoxyethyl) (MOE); k = constrained ethyl (cEt); [5mC] = 5-methylcytosine; d = 2'-deoxy (DNA)
// reported % inhibition per item
The answer is to be given in %; state only the numeric part.

Sample answers from the record:
INSERT INTO assay_data (substance, observed_measurement) VALUES
  ('548331 (antisense eA*e[5mC]*kA*dA*dT*d[5mC]*d[5mC]*d[5mC]*dT*dT*dA*dG*d[5mC]*k[5mC]*k[5mC]*eA) [compound 548331]', 73),
  ('548363 (antisense e[5mC]*eA*kG*d[5mC]*dA*dG*dG*d[5mC]*dT*d[5mC]*dA*dA*dA*kG*kT*eG) [compound 548363]', 37),
  ('548356 (antisense eT*eG*kT*dT*dG*dG*dT*d[5mC]*dA*dG*d[5mC]*dA*dT*kT*k[5mC]*eA) [compound 548356]', 63),
  ('548362 (antisense eG*eA*k[5mC]*dA*dA*d[5mC]*d[5mC]*d[5mC]*dA*dT*d[5mC]*dA*dG*kT*kT*eG) [compound 548362]', 33),
  ('548358 (antisense eA*eT*kT*dT*dG*dG*dG*d[5mC]*d[5mC]*dT*dA*dG*dT*kG*kG*eT) [compound 548358]', 0);

The value of % inhibition recorded for 548379 (eA*eT*k[5mC]*dG*dA*dA*d[5mC]*dT*d[5mC]*dT*dG*d[5mC]*dT*kT*kG*eA; antisense) [compound 548379] when tested on human PKK mRNA reads 44

Note to self: % inhibition of 548372 (eG*eA*kT*dA*d[5mC]*d[5mC]*dT*dT*dT*d[5mC]*d[5mC]*dA*d[5mC]*kT*k[5mC]*e[5mC]; antisense) [compound 548372] with human PKK mRNA was 61

Sample 548339 (antisense eA*e[5mC]*kA*dT*dG*dT*dG*dG*dG*dA*dT*d[5mC]*dA*kG*kA*eG) [compound 548339] , system: human PKK mRNA. Its % inhibition is 37

I looked up 548329 (antisense eA*eG*k[5mC]*dA*dG*dA*dT*d[5mC]*dT*dG*dG*dG*dT*kT*kG*eT) [compound 548329] and its % inhibition for human PKK mRNA was 59

Let me check: 548320 (eG*e[5mC]*kA*d[5mC]*dA*d[5mC]*dA*dG*dA*d[5mC]*dT*dT*dG*k[5mC]*k[5mC]*e[5mC]; antisense) [compound 548320] , system human PKK mRNA, measured % inhibition is 0

* * *

tested on: human PKK mRNA; assay: Antisense inhibition of human PKK mRNA in HepaRG cells, 3,000 nM (Example 1); assay type: cell-based; settings: Table 1; PKK mRNA, HepaRG cells, 3,000 nM, electroporation, ~24 h, relative to untreated control cells
Strand notation (5' to 3'): a small letter for the sugar, then the base; units joined by * are phosphorothioate-linked, units joined directly phosphodiester-linked; [ ] holds rarer units or linkages, { } end groups; capitals alone tell only the bases. e = 2'-O-(2-methoxyethyl) (MOE); [5mC] = 5-methylcytosine; d = 2'-deoxy (DNA)
Use 40% as the dividing line for % inhibition, with the line itself on the condition met side and lower values as condition not met.

INSERT INTO assay_data (substance, assayed_target, label_value) VALUES
  ('530957 (antisense eG*eG*e[5mC]*eA*eA*dG*d[5mC]*dA*d[5mC]*dT*dT*dA*dT*dT*dT*eG*eA*eT*eG*eA) [compound 530957]', 'human PKK mRNA', 'condition met'),
  ('530996 (eT*eG*eA*e[5mC]*eA*dG*d[5mC]*dG*dA*dA*dT*d[5mC]*dA*dT*d[5mC]*eT*eT*eT*eG*eT; antisense) [compound 530996]', 'human PKK mRNA', 'condition met'),
  ('530981 (antisense eT*eT*e[5mC]*eT*eT*dT*dT*dG*d[5mC]*dA*dG*dG*dT*dT*dA*eA*eA*eA*eG*eG) [compound 530981]', 'human PKK mRNA', 'condition not met');

*Q* For this substance, is measured % inhibition 40% or higher? 530978 (antisense e[5mC]*eT*eA*eT*eA*dT*d[5mC]*d[5mC]*dA*dG*dA*dT*dA*dT*dG*eG*eT*eG*eT*eT) [compound 530978]
*A* condition not met

*Q* Is % inhibition for 531001 (eA*eG*eA*eT*eA*dA*dT*d[5mC]*dT*dT*dA*dA*dG*dA*dA*eA*e[5mC]*eA*e[5mC]*eT; antisense) [compound 531001] at or above 40%?
*A* condition met

*Q* Given the entry 530983 (antisense eA*eT*eG*eG*e[5mC]*dA*dG*dG*dG*dT*dT*d[5mC]*dA*dG*dG*eT*eA*eA*eA*eG) [compound 530983] , answer whether its % inhibition meets or surpasses 40%.
*A* condition not met
